target_of_assay: FGFR1 (UniProt P11362)
Sequence (P11362 whole entry, looked up): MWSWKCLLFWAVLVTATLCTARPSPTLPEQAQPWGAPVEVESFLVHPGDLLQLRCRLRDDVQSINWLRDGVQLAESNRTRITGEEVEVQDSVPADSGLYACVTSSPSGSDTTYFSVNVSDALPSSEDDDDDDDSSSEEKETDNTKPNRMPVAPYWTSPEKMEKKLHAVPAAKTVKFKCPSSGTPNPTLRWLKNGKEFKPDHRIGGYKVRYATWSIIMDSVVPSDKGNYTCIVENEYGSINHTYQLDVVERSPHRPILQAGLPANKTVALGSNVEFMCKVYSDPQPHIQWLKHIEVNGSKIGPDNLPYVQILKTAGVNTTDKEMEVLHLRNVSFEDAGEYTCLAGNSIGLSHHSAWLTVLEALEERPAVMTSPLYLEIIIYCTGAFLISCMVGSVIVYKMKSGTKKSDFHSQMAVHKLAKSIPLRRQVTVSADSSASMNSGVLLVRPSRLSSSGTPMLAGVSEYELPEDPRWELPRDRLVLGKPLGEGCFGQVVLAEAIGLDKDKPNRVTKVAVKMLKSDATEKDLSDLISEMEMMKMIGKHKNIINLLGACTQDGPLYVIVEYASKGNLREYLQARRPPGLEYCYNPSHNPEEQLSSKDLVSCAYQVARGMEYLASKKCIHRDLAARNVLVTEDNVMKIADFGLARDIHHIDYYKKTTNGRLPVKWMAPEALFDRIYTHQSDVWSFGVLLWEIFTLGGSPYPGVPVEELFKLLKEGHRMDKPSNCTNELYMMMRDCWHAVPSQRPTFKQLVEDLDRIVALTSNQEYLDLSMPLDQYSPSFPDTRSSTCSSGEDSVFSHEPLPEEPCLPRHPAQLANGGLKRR
run_description: phosphorylation enrichment, bacterial display (enrichment ratio); higher = better substrate or ligand; peptides without Tyr show the background;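 also: 11-residue human phosphosite peptides and single-mutation variants displayed on the E. coli surface, counted by deep sequencing, each peptide's frequency after selection divided by its frequency in the unselected input library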;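 also: frequency after pTyr selection over input frequency; kinase dosed for 20-30% of maximal phosphorylation in three min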
Criterion: phosphorylation enrichment meeting or surpassing 0.6. Met: Y. Not met: N.

Answer whether phosphorylation enrichment of GCRSKHVGLWG [KCNQ1_Y184_Y184H] is greater than or equal to 0.6. N

Could you verify whether the entry QMQLKYSQSDL [SMC1A_Y714_R711Q] shows phosphorylation enrichment of no less than 0.6? Y

For this sequence, is measured phosphorylation enrichment 0.6 or higher? DLDFTYIFPNI [PTEN_Y27_L25F_YF] Y

# check: phosphorylation enrichment of FAKSVYWDNTL [NUP107_Y296_E298D_YF] is greater than or equal to 0.6 N

Record SHNKFYMLVAR [MFSD8_Y134_YF] ; criterion: phosphorylation enrichment no lower than 0.6. Met? N

Quick check: does DGSALYTGSAL [COL6A3_Y524] have phosphorylation enrichment greater than or equal to 0.6? N

====

Tested on: c-Abl (mouse)
run_description: phosphorylation enrichment, bacterial display (enrichment ratio); higher = better substrate or ligand; peptides without Tyr show the background
Each entry gets NO if its phosphorylation enrichment stays under 0.7, and YES if its phosphorylation enrichment is 0.7 or above.

Decide: is the reported value of phosphorylation enrichment for LVMFIYAIFWM [SCN1A_Y1684_G1688W] equal to or greater than 0.7? YES

# bool: phosphorylation enrichment of PLYRKYWPNHI [GREB1L_Y1560] >= 0.7 YES

API: above_or_equal(metric=phosphorylation enrichment, cutoff=0.7) for item SVVVCYEPPEV [TP53_Y220_P219C] YES

Please check the record EKSREYHRLYE [PIK3R1_Y463_D464H] and state if its phosphorylation enrichment is at or above 0.7. NO

Please tell me: is the sequence RQSTLYSFFPK [MSH6_Y8] at or over 0.7 in terms of phosphorylation enrichment? YES

Reported phosphorylation enrichment at or above 0.7? SLQSEYVHYGG [CDC14A_Y591] NO

Kindly determine if phosphorylation enrichment recorded for LLKNMYLMLDN [STAT1_Y203_K201N] is above or exactly 0.7. YES

Check this sequence for phosphorylation enrichment at or above 0.7: DLTQDSEEWKR [ORC6_Y232_Y232S] NO

Is phosphorylation enrichment for NVDGKYSFLKV [GRM3_Y478_G475D_YF] at or above 0.7? NO

Please indicate if the recorded phosphorylation enrichment for GGKFSYLKVGH [GRM3_Y480_YF] meets or exceeds 0.7. NO

Identify whether the reported phosphorylation enrichment of the following sequence is 0.7 or greater: SVTCTNSPALN [TP53_Y126_Y126N] YES

Hi, just wondering whether LRGEDCGFSVD [PRKCI_Y430_Y430C] shows phosphorylation enrichment of 0.7 or higher. YES

State whether the measured phosphorylation enrichment reaches 0.7, counting equality as reaching it, for EFGEVYKGMLK [EPHA2_Y628] NO

Assess whether reported phosphorylation enrichment for KLGDVYVNDAF [PGK1_Y161] sits at 0.7 or higher. NO

====

Test system: c-Abl (mouse)
run_description: phosphorylation enrichment, bacterial display (enrichment ratio); higher = better substrate or ligand; peptides without Tyr show the background
Record form. Attribute: phosphorylation enrichment. Fill in for each entry.

What measured phosphorylation enrichment goes with RLNCIYFKDQT [RS1_Y165_W163C_YF] ? 1.05

# query: phosphorylation enrichment of entry ENAGYYFRVSA 0.775

Consider the sequence shown here: FEGAIYRKDIG [GART_Y417_V421I] What is its recorded phosphorylation enrichment? 0.515

Can you share its phosphorylation enrichment? I mean this sequence: VDGFVYKLHPS [GCK_Y413_S411F] 0.562

Quick one: phosphorylation enrichment of NPQKPYFIRLF [WAS_Y83_S82P_YF] ? 0.423

Consider the sequence shown here: VMTLDYSKTVV [SETD2_Y770_V768L] What is its recorded phosphorylation enrichment? 0.643

Quick check: phosphorylation enrichment of SEKIVYGHVDD [ACO2_Y71_L74V] ? 0.677

Looking for the measured phosphorylation enrichment of MSLDQYSPSFP [FGFR1_Y776_P772S] , can you help? 0.598

// phosphorylation enrichment lookup, key: KTGDFYDLFGG [PTPN11_Y63_N58K_YF] 0.627

Consider the sequence IVRSLYEDQED [VHL_Y185_L188Q] and give its measured phosphorylation enrichment. 0.826

Could you share which phosphorylation enrichment value was measured for PVQAAYQQVVA [HBB_Y131_K133Q] ? 0.677

What value of phosphorylation enrichment has been recorded for this entry: YRNKPYISWPS [CDC42BPB_Y1638_S1633Y] 0.401

Name the recorded phosphorylation enrichment for GQKTLYSFFSP [UNG_Y8] . 2.05

So what's the measured phosphorylation enrichment for this one? TFEFRYLEDQD [CNOT3_Y746_R750Q_YF] 0.997
